Reference source for all entries: patent US20100216848A1

Assay: Solubility of Compound I anhydrous Polymorph B in various liquid vehicles (suspension equilibrated at least 24 hours, filtered, HPLC)
Format: physicochemical
Conditions: 95.5% H2O, aqueous with cosolvent or surfactant or cyclodextrin, thermodynamic from solid, 0.5% Tween80, 95.5% H20, room temperature

Compound | solubility
C[C@H](NC(=O)C(C)(C)Oc1ccc(C(F)(F)F)cn1)[C@@H](Cc1ccc(Cl)cc1)c1cccc(C#N)c1 [Compound I] | 80 µg/mL

====

Test: Solubility of Compound I anhydrous Polymorph B in various liquid vehicles (suspension equilibrated at least 24 hours, filtered, HPLC)
Assay type: physicochemical
Conditions: 99.75% H2O, aqueous with cosolvent or surfactant or cyclodextrin, thermodynamic from solid, 0.25% Tween80, 99.75% H20, room temperature

Smiles Text | solubility / µg/mL
C[C@H](NC(=O)C(C)(C)Oc1ccc(C(F)(F)F)cn1)[C@@H](Cc1ccc(Cl)cc1)c1cccc(C#N)c1 | 40
